Source of measurements: paper PMC6278829

# subject of test: α1β3γ2L GABAA receptors (β+ – α− sites) (Homo sapiens, UniProt P14867+P18507+P28472)
# Sequence (P14867 28-456): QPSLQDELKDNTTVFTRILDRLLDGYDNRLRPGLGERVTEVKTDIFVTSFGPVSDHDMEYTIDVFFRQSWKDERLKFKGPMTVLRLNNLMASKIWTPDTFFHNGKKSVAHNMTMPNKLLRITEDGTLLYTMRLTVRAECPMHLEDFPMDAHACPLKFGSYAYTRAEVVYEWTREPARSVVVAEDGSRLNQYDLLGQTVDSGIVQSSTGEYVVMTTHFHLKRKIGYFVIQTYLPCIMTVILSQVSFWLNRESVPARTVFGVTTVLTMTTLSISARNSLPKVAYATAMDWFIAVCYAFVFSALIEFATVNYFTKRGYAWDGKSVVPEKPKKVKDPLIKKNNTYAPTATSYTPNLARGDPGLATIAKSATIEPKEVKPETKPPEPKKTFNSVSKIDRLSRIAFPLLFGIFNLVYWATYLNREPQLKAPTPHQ
# Sequence (P28472 26-473): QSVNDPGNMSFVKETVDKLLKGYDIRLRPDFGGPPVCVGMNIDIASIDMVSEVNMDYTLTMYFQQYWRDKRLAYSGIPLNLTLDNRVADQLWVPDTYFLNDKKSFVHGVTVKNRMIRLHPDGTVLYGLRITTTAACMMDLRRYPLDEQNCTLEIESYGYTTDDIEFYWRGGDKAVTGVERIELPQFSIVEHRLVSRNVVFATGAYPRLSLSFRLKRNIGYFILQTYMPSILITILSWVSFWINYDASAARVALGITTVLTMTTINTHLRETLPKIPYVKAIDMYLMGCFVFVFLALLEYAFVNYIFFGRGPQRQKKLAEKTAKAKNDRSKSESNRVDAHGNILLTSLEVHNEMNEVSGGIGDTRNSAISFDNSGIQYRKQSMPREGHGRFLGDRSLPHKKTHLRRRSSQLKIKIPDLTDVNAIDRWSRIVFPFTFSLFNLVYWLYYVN
# Sequence (P18507 40-475): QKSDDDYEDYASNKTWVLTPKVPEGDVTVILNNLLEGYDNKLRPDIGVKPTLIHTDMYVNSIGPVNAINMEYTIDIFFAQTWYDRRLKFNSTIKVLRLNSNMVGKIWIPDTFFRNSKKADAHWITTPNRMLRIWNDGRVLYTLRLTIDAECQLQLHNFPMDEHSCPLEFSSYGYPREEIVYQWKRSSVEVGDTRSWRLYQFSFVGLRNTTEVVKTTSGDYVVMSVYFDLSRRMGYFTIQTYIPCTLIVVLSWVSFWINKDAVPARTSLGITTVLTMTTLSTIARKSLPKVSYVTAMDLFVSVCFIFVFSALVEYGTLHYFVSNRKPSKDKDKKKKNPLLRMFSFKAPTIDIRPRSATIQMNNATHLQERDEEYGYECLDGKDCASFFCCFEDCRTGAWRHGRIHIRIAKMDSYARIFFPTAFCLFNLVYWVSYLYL
# test details: Inhibition of ^3[H]azi-etomidate photoaffinity labeling of purified receptors
# particulars: read-out: IC50 for Inhibiting Photoaffinity Labeling by ^3[H]Azi-etomidate (95% CI); ~2 μM photolabel; 1 mM GABA (open/desensitized state)
Please note: IC50 exactly at 80 µM is Not satisfied. Only values below 80 µM get Satisfied.

Is IC50 of CCOC(=O)c1cncn1[C@H](C)c1ccc(OC)cc1 [p-Methoxy-etomidate] strictly below 80 µM? Satisfied

====

# subject of test: α1β3γ2L GABAA receptors (β+ – α− sites) (Homo sapiens, UniProt P14867+P18507+P28472)
# test details: Inhibition of ^3[H]azi-etomidate photoaffinity labeling of purified receptors
# particulars: read-out: IC50 for Inhibiting Photoaffinity Labeling by ^3[H]Azi-etomidate (95% CI); ~2 μM photolabel; 1 mM GABA (open/desensitized state)
compounds and their reported pIC50
Convention used: pIC50 is expressed as -log10 of the molar concentration.

Example entries begin here.
CCOC(=O)c1cncn1[C@H](C)c1ccc(Br)cc1 [p-Bromo-etomidate] :: 5.09
CCOC(=O)c1cncn1C(C)c1ccc2ccccc2c1 (stereo not shown) [Naphthalene2-etomidate] :: 4.11
CCOC(=O)c1cncn1[C@H](C)c1ccc(F)cc1 [p-Fluoro-etomidate] :: 5.44

Continue with the next compound.
Tell me the measured pIC50 of CCOC(=O)c1cncn1[C@H](C)c1cccc(OC(C)C)c1 [m-Isopropoxy-etomidate] , please. 3.68
